- EXPERIMENT_DESCRIPTION: AUC (0 to t) in ICR mouse at 30 mg/kg, ip measured for 3 hrs by LC-MS/MS analysis
- Assay type: ADME, organism-based
- STUDY_CONDITIONS: in vivo
READOUT_TYPE: AUC(0-t) at 3 h (ng·h/mL)
Kindly provide the numeric value in ng·h/mL only, without the unit symbol.

AUC(0-t) at 3 h measured on `COc1ccc(OC)c(-n2c(CBr)nc3c(sc(=S)n3-c3cccc(Cl)c3)c2=O)c1` = 481

---

- EXPERIMENT_DESCRIPTION: Cmax in ICR mouse at 30 mg/kg, ip measured for 3 hrs by LC-MS/MS analysis
- Format: ADME, organism-based
- STUDY_CONDITIONS: in vivo
READOUT_TYPE: Cmax (ng/mL)
All answers are understood in ng/mL, so give the number only.

Note to self: Cmax recorded for `COc1ccc(OC)c(-n2c(CBr)nc3c(sc(=S)n3-c3cccc(Cl)c3)c2=O)c1` was 779
